SYSTEM NAME: T1, human IL-11 (AAH12506.1, Pro22-Leu199) (human, UniProt P20809 22-199)
T1 construct: The range Pro22-Leu199 counts on AAH12506.1; The Octet runs say only 'human IL-11'; also called hIL-11
T1 chain: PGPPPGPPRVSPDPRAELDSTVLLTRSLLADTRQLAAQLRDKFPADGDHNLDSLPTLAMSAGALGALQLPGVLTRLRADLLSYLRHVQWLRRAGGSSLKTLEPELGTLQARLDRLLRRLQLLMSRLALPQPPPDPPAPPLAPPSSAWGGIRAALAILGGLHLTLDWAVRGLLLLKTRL
TEST DESCRIPTION: BLI (Octet), antibody captured, human IL-11 in solution
// values below are reported koff
Your answer should be a plain number; it is taken to be in s⁻¹.

Some solved entries appear below for comparison.
| BINDER | MEASUREMENT UNITS | koff |
| --- | --- | --- |
| hz8C8-VHm4 + hz8C8-VL (antibody, human IgG1, kappa, V domains shown, human IgG1 constant regions) VH: EVQLVESGGGLVQPGGSLRLSCAASGFTFSSFGMHWVRQAPGKGLEWVAYITSGANTIYYADTVKGRFTISRDNAKNSLYLQMNSLRAEDTAVYYCAREYYSYDEGFAYWGQGTLVTVSS VL: EIVLTQSPATLSLSPGERATLSCSVSSSISSNYLHWYQQKPGQAPRLLIYRTSNLASGIPARFSGSGSGTDFTLTISSLEPEDFAVYYCQQGVDVPFTFGQGTKLEIKR | s⁻¹ | 0.0012 |
| hz8C8-VHm1-m3 + hz8C8-VLm7-m1 (antibody, human IgG1, kappa, V domains shown, human IgG1 constant regions) VH: EVQLVESGGGLVQPGGSLRLSCAASGFTFSSFGMHWVRQAPGKGLEWVAYITPGSNTIYYADTVKGRFTISRDNAKNSLYLQMNSLRAEDTAVYYCAREYSSYDEGFAYWGQGTLVTVSS VL: EIVLTQSPATLSLSPGERATLSCSVSDLIPSQYLHWYQQKPGQAPRLLIYRASNLASGIPARFSGSGSGTDFTLTISSLEPEDFAVYYCQQGVDVPFTFGQGTKLEIKR | s⁻¹ | 5.81e-05 |

Now for a further binder.
Can you share its koff? I mean this binder: hz8C8-VHm1 + hz8C8-VLm4 (antibody, human IgG1, kappa, V domains shown, human IgG1 constant regions) VH: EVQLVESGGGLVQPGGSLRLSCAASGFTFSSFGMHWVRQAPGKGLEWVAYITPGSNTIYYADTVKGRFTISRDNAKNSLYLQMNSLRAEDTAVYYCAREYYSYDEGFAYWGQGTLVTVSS VL: EIVLTQSPATLSLSPGERATLSCSVSDLISSNYLHWYQQKPGQAPRLLIYRTSNLASGIPARFSGSGSGTDFTLTISSLEPEDFAVYYCQQGVDVPFTFGQGTKLEIKR
0.000141

Data credit: patent US20250197488A1
